Biological target: MMP-1 (Homo sapiens, UniProt P03956)
Sequence (P03956 100-469): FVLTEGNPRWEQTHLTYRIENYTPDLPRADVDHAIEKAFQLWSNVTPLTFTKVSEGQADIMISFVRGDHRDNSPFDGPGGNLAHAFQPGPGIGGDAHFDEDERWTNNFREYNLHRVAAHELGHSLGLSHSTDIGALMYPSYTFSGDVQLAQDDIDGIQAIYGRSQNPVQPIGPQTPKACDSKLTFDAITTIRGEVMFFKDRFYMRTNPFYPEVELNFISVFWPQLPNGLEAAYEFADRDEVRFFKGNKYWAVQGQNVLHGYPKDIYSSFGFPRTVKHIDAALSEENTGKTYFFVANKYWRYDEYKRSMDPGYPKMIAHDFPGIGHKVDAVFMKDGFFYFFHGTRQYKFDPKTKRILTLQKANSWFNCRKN
Test: Cleavage by recombinant protease MMP-1
Type: biochemical
Details: initial rate, recombinant MMP-1
endpoint name: Rates of cleavage by recombinant proteases, MMP-1 (µM/h)

| sequence record | readout value |
| --- | --- |
| IVGRPRHQGV [proteolytically cleavable peptide (CP), protease substrate] | 0.0 |

(I) TQKPLGLS [proteolytically cleavable peptide (CP), protease substrate]
(II) RPLALWRS [proteolytically cleavable peptide (CP), protease substrate]
# query: argmin of Rates of cleavage by recombinant proteases, MMP-1 over I and II Indicate which entry you chose by stating its label. I
